// data source = patent US12723100

studySystem: T1, full-length human Nectin-4 on cells (human, UniProt Q96NY8 32-510)
T1 sequence: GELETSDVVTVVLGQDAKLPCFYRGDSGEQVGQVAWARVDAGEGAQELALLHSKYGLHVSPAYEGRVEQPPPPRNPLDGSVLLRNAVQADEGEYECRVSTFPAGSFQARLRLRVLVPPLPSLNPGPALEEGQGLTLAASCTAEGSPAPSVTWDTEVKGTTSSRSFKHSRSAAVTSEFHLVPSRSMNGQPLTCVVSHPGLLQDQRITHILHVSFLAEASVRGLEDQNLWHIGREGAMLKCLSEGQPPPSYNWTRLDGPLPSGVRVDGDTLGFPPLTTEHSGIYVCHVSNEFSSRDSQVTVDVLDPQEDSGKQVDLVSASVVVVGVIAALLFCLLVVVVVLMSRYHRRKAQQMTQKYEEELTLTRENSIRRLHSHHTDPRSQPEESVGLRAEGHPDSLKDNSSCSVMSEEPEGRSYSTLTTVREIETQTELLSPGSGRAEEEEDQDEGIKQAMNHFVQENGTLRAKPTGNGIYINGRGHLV
assaySummary: cell-based or functional assay
quantityName: Endocytosis EC50 (cell killing with MMAF-conjugated Fab anti-hFc), Nectin-4-CHO cells (nM)
Give just the numeric value; nM need not be written.

INSERT INTO measurements (binder, endpointunit, resultvalue) VALUES
  ('N4_mAb 1 (antibody, human IgG1, V domains shown, Tested as chimera (murine variable regions, human IgG1/kappa constants); not shown: human IgG1 constant region (Uniprot P01857); human Kappa light chain constant region (UniProt P01834)) VH: QVQLKQSGPGLVQPSQSLSITCTVSGFSLTNYGVNWVRQPPGKGLEWLGVIWSGGSTDYNAAFISRLSISKDISKSQVFFKMNSLQADDTAKYYCAREGYDGYAMDYWGQGTSVTVSS VL: DIQMTQSPASLSVSVGETVTITCRASENIFSSLAWYQQKQGKSPQLLVYGATNLADGVPSRFSGSGSGTQYSLKINSLQSEDFGTYWCQHFWGNPWTFGGGTKLEIK', 'nM', 0.36);

Next:
Returns the measured Endocytosis EC50 (cell killing with MMAF-conjugated Fab anti-hFc), Nectin-4-CHO cells for the input binder. Input: N4_mAb 5 (antibody, human IgG1, V domains shown, Tested as chimera (human IgG1/kappa constants); not shown: human IgG1 constant region (Uniprot P01857); human Kappa light chain constant region (UniProt P01834)) VH: EVQLQQSGPDLVKPGASVKISCKASGYSFTGHYMHWVKQSHGKSLEWIGRVNPNNGGSSYNQKFKDKAILTVDKSSTTAYMELRSLTSEDSAVYYCARDPLGGSYGFAYWGQGTLVTVSA VL: DIVLTQSPASLAVSLGQRATISCRASQSVTTSSYSYMHWYQQKPGQPPKLLIKYASNLESGVPARFSGSGSGTDFTLNIHPVEEEDTATYYCQHSWEIPYTFGGGTKLEMK 0.45
